# test-target: T1, FZD8-Fc (Homo sapiens, UniProt Q9H461)
# T1 construct: segment consists of an extracellular portion of Frizzled which includes the CRD; Fc (C)
# T1 sequence (Q9H461 30-151 limits assumed): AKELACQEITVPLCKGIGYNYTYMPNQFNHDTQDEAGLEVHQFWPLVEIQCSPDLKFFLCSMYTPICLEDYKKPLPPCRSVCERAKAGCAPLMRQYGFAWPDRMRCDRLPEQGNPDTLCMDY
# assay-procedure: Surface plasmon resonance analysis of IgG binding to Frizzled-Fc chimera
# details: SPR, FZD8-Fc
Recorded measurements of Kd (dissociation constant), one per entry

>  <molecule>
IgG-2916: anti-FZD5 IgG molecule incorporating antibody variable region Fv-2916 (antibody, V domains shown) VH: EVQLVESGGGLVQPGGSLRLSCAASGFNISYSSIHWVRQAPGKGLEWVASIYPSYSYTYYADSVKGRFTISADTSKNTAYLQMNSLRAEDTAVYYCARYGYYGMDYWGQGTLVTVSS VL: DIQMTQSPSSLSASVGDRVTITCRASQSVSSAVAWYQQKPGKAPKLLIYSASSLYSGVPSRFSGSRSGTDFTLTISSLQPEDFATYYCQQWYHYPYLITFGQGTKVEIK

>  <unit-string>
s⁻¹

>  <Kd (dissociation constant)>
4.75e-05

$$$$
>  <molecule>
IgG-2920: anti-FZD5 IgG molecule incorporating antibody variable region Fv-2920 (antibody, V domains shown) VH: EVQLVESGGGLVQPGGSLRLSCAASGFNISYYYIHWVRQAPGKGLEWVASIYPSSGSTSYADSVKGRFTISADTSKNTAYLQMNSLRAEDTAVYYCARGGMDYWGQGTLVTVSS VL: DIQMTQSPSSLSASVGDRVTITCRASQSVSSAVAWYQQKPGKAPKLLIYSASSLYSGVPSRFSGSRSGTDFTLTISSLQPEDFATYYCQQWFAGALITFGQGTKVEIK

>  <unit-string>
s⁻¹

>  <Kd (dissociation constant)>
0.000238

$$$$
>  <molecule>
IgG-2921: anti-FZD5 IgG molecule incorporating antibody variable region Fv-2921 (antibody, V domains shown) VH: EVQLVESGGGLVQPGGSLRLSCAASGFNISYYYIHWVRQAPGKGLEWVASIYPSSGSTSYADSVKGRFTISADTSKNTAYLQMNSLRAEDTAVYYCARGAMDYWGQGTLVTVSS VL: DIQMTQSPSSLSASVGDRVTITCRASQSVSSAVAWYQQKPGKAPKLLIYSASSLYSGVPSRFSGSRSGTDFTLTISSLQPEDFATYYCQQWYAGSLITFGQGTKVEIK

>  <unit-string>
s⁻¹

>  <Kd (dissociation constant)>
2.71e-05

$$$$
>  <molecule>
IgG-2910: anti-FZD5 IgG molecule incorporating antibody variable region Fv-2910 (antibody, V domains shown) VH: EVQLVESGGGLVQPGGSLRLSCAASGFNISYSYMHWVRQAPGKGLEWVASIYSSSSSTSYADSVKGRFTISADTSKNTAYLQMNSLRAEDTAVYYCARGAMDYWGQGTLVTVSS VL: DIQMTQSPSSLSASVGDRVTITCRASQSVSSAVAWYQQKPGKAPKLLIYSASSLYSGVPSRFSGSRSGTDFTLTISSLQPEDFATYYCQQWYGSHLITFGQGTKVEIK

>  <unit-string>
s⁻¹

>  <Kd (dissociation constant)>
2.28e-05

$$$$
